# Test Protocol: Hepatic microsomal stability, HLM
# Assay type: in vitro ADME, human
# Measurement Parameters: In vitro human liver microsomal stability; no cofactor
The entries below come with measured perc_remaining_no_cofactor values attached.
Could you give me the number in %? Just the number is fine.

Compound	Unit Tag	perc_remaining_no_cofactor
COc1ccc([C@H](CC(=O)O)NC(=O)c2ncnc3[nH]ccc23)cc1 (racemic)	%	88.0
CC(C)[C@@H](Nc1ncnc2[nH]cc(C(=O)NC3CC3)c12)c1ccc2c(c1)S(=O)(=O)CCC2	%	111.0

[ask] Return reported perc_remaining_no_cofactor. Input compound: CC(C)[C@H](Nc1ncnc2[nH]c(-c3cnn(CC(N)=O)c3)cc12)c1ccc2c(c1)S(=O)(=O)CCC2 (racemic) [ASAP-0008679]
[reply] 95.0

###

The entries below come with measured perc_inhibition (% inhibition of the binding of a ligand specific for each target) values attached.
# Test system: BZD (central)
# Test Protocol: In vitro CEREP profiling, BZD (central) (agonist radioligand)
# Assay type: binding
# Measurement Parameters: test compound 10 uM

Completed entries (count: 4):
Compound	Observed Result
CNCc1cc(-c2cc3c(N[C@@H](c4ccc5c(c4)S(=O)(=O)CCC5)C(C)C)ncnc3[nH]2)co1	28%
CC(C)[C@H](Nc1ncnc2[nH]c(-c3cnn(C)c3C#N)cc12)c1ccc2c(n1)OCCO2	-2%
CC(C)[C@H](Nc1ncnc2[nH]ccc12)c1ccc2c(c1)S(=O)(=O)CCC2	4%
Cc1nn(C)cc1-c1cc2c(NC(c3ccc4c(c3)S(=O)(=O)CCC4)C(C)C)ncnc2[nH]1 (stereo not drawn)	29%

[ask] Return reported perc_inhibition (% inhibition of the binding of a ligand specific for each target). Input compound: COc1ccc([C@H](Cc2nnn[nH]2)NC(=O)c2ncnc3[nH]ccc23)cc1
[reply] 0%

[ask] Return reported perc_inhibition (% inhibition of the binding of a ligand specific for each target). Input compound: CC(C)[C@@H](Nc1ncnc2[nH]c(-c3cnn(C)c3C#N)cc12)c1ccc2c(n1)OCCO2
[reply] 8%

[ask] Return reported perc_inhibition (% inhibition of the binding of a ligand specific for each target). Input compound: Cn1ncc(-c2cc3c(N[C@@H](c4ccc5c(n4)OCCO5)C(C)(C)C)ncnc3[nH]2)c1C#N
[reply] -5%

[ask] Return reported perc_inhibition (% inhibition of the binding of a ligand specific for each target). Input compound: C[C@H](C(=O)O)[C@@H](NC(=O)c1ncnc2[nH]ccc12)c1ccc(Br)cc1
[reply] -4%

[ask] Return reported perc_inhibition (% inhibition of the binding of a ligand specific for each target). Input compound: CC(C)C(Nc1ncnc2[nH]c(C(=O)NC3CCN(C)C3)cc12)c1ccc2c(c1)S(=O)(=O)CCC2 (stereo not drawn)
[reply] 38%

###

# Tested on: HeLa-ACE2 cells
# Measurement Parameters: protocol HeLa-ACE2 cytotoxicity
The entries below come with measured CC50 values attached.

Compound	Measure Name	Observed Result
CNCc1cc(-c2cc3c(N[C@@H](c4ccc5c(c4)S(=O)(=O)NCC5)C(C)C)ncnc3[nH]2)co1 [ASAP-0011243]	CC50	> 20 µM
CC(C)[C@@H](Nc1ncnc2[nH]c(-c3cnn(CC(=O)N(C)C)c3)cc12)c1ccc2c(c1)OCCO2 [ASAP-0008485]	CC50	> 20 µM
CNC(=O)c1cccc(-c2cc3c(N[C@H](c4ccc5c(c4)S(=O)(=O)CCC5)C(C)C)ncnc3[nH]2)c1 (single isomer, unassigned) [ASAP-0012338]	CC50	> 20 µM
CNC(=O)c1cc2c(N[C@@H](c3ccc4c(c3)OCCO4)C(C)C)ncnc2[nH]1 [ASAP-0008348]	CC50	> 50 µM
CNC(=O)Cn1cc(-c2cc3c(N[C@H](c4ccc5c(c4)S(=O)(=O)CCC5)C(C)C)ncnc3[nH]2)cn1 (single isomer, unassigned) [ASAP-0011171]	CC50	> 20 µM
CC(C)[C@@H](Nc1ncnc2[nH]c(-c3cnn(CC(N)=O)c3)cc12)c1ccc2c(c1)S(=O)(=O)CCC2 [ASAP-0011432]	CC50	> 20 µM
CC(C)[C@@H](Nc1ncnc2[nH]c(-c3cnn(C)c3C#N)cc12)c1ccc2c(c1)S(=O)(=O)CCC2 (single isomer, unassigned) [ASAP-0011147]	CC50	> 20 µM
CNC(=O)c1cc2c(N[C@@H](c3ccc4c(c3)S(=O)(=O)CCC4)C(C)C)ncnc2[nH]1 (single isomer, unassigned) [ASAP-0012346]	CC50	> 20 µM

[ask] Return reported CC50. Input compound: Cn1ncc(-c2cc3c(N[C@@H](c4ccc5c(c4)OCCO5)C(C)(C)C)ncnc3[nH]2)c1C#N (racemic) [ASAP-0008484]
[reply] > 20 µM

[ask] Return reported CC50. Input compound: CC(C)[C@@H](Nc1ncnc2[nH]c(-c3cnn(C)c3C#N)cc12)c1ccc2c(c1)OCCO2 (racemic) [ASAP-0008275]
[reply] > 50 µM

###

The entries below come with measured perc_remaining_no_cofactor values attached.
# Test Protocol: Hepatic microsomal stability, HLM
# Type: in vitro ADME, human
# Measurement Parameters: In vitro human liver microsomal stability; no cofactor
Could you give me the number in %? Just the number is fine.

Completed entries (count: 6):
Molecule	Observed Result
CC(C)[C@@H](Nc1ncnc2[nH]ccc12)c1ccc2c(c1)S(=O)(=O)CCC2 (single isomer, unassigned) [ASAP-0008676]	99.0
CC(C)[C@@H](Nc1ncnc2[nH]c(-c3cnn(C)c3C#N)cc12)c1ccc2c(c1)S(=O)(=O)CCC2 [ASAP-0008651]	94.0
CNCc1cc(-c2cc3c(N[C@@H](c4ccc5c(c4)S(=O)(=O)CCC5)C(C)C)ncnc3[nH]2)co1 [ASAP-0010745]	110.0
CC(C)[C@@H](Nc1ncnc2[nH]c(-c3ccc4nnn(C)c4c3)cc12)c1ccc2c(c1)S(=O)(=O)CCC2 [ASAP-0011201]	93.0
CC(C)[C@H](Nc1ncnc(N)c1Cl)c1ccc2c(c1)S(=O)(=O)CCC2 (racemic) [ASAP-0010739]	101.0
O=C(Nc1cccc2c(C(=O)N[C@H]3c4ccccc4C[C@H]3C(=O)O)c[nH]c12)NC1CC1 (racemic) [ASAP-0000627]	86.0

Turning now to a further record.
[ask] Return reported perc_remaining_no_cofactor. Input molecule: CC(C)[C@H](Nc1ncnc2[nH]c(-c3cnn(C)c3C#N)cc12)c1ccc2c(c1)NC(=O)CO2 (racemic) [ASAP-0008576]
[reply] 93.0

###

# Study Target: SARS-CoV-2 nsp3-mac1 (Severe acute respiratory syndrome coronavirus 2)
# Test Protocol: biochemical
# Format: biochemical
# Measurement Parameters: SARS-CoV-2 nsp3 macrodomain TR-FRET single point, concentration 50.0 uM
The entries below come with measured perc_inhibition_mean values attached.
Could you give me the number in %? Just the number is fine.

Completed entries (count: 4):
Molecule	Measure Name	Observed Result
CC(C)(CCNc1ncnc2[nH]ccc12)S(C)(=O)=O [ASAP-0000004]	perc_inhibition_mean	0.75
Cc1nn(C)c(NCc2nc(CO)cs2)c1C#N [ASAP-0000113]	perc_inhibition_mean	2.1
c1nc(N2CC[C@@H](n3cncn3)C2)c2cc[nH]c2n1 [ASAP-0000006]	perc_inhibition_mean	-1.543
O=C(CCCc1cccnc1)Nc1cnc2[nH]ncc2c1 [ASAP-0000114]	perc_inhibition_mean	-3.651

Turning now to a further record.
[ask] Return reported perc_inhibition_mean. Input molecule: CC(C)(C[C@@H]1CCCN(c2ncnc3[nH]ccc23)C1)C(N)=O [ASAP-0000077]
[reply] -1.586

###

# Study Target: SARS-CoV-2 nsp3-mac1 (Severe acute respiratory syndrome coronavirus 2, UniProt P0DTD1)
# Test Protocol: biochemical
# Format: biochemical
# Measurement Parameters: SARS-CoV-2 nsp3 macrodomain TR-FRET single point; concentration 100.0 uM; n=2
The entries below come with measured perc_inhibition_mean values attached.

Completed entries (count: 5):
Compound	perc_inhibition_mean
Cc1cc(C(F)(F)F)nn1CCNc1ncnc2[nH]ccc12 [ASAP-0000200]	-2.206%
CCC(CC)(C(=O)Nc1nc(C)nc2[nH]ccc12)C(=O)OC(C)(C)C [ASAP-0000265]	-4.708%
Cc1[nH]c2ncnc(NCc3ccco3)c2c1C [ASAP-0000263]	37.474%
Cc1nc(NC(=O)c2ccnn2C(C)C)c2cc[nH]c2n1 [ASAP-0000268]	-4.346%
c1nc(-c2nc(-c3cc(C4CC4)[nH]n3)no2)c2cc[nH]c2n1 [ASAP-0000199]	-2.454%

[ask] State measured perc_inhibition_mean of the compound c1cc(-c2nnc(Sc3ncnc4[nH]ccc34)[nH]2)ccn1 [ASAP-0000196] with SARS-CoV-2 nsp3-mac1 (Severe acute respiratory syndrome coronavirus 2, UniProt P0DTD1).
[reply] 3.318%

[ask] State measured perc_inhibition_mean of the compound O=C(Nc1cnc2[nH]ncc2c1)c1cccc(-c2noc(C(F)(F)F)n2)c1 [ASAP-0000267] with SARS-CoV-2 nsp3-mac1 (Severe acute respiratory syndrome coronavirus 2, UniProt P0DTD1).
[reply] -1.621%

[ask] State measured perc_inhibition_mean of the compound Cc1nc(NC(=O)c2nccc3ccncc23)c2cc[nH]c2n1 [ASAP-0000264] with SARS-CoV-2 nsp3-mac1 (Severe acute respiratory syndrome coronavirus 2, UniProt P0DTD1).
[reply] 2.611%

[ask] State measured perc_inhibition_mean of the compound c1cc(CNc2ncnc3nc[nH]c23)n2ncnc2c1 [ASAP-0000262] with SARS-CoV-2 nsp3-mac1 (Severe acute respiratory syndrome coronavirus 2, UniProt P0DTD1).
[reply] 10.036%

[ask] State measured perc_inhibition_mean of the compound Cc1ccc(-c2n[nH]cc2CNc2cnc3[nH]ncc3c2)o1 [ASAP-0000203] with SARS-CoV-2 nsp3-mac1 (Severe acute respiratory syndrome coronavirus 2, UniProt P0DTD1).
[reply] -24.84%

Origin of the recorded values: paper doi:10.1101/2024.08.19.608619
